- MEASUREMENT TARGET: Bile acid receptor (Homo sapiens)
- EXPERIMENT DESCRIPTION: Agonist activity at human FXR transfected in african green monkey CV1 cells by luciferase reporter gene transient transfection assay relative to GW-4064
- Assay type: functional, cell-based
- CONDITION DESCRIPTION: CV-1
OBSERVATION TYPE: %max (%)

These solved cases illustrate the format of a correct answer.
| COMPOUND | OBSERVATION TYPE | OUTPUT UNIT | REPORTED VALUE |
| --- | --- | --- | --- |
| CC(C)c1onc(COc2c(F)cccc2F)c1COc1ccc(/C=C/c2cccc(C(=O)O)c2)c(Cl)c1 | %max | % | 112 |
| CC(C)c1onc(Cc2ccccc2)c1COc1ccc(/C=C/c2cccc(C(=O)O)c2)c(Cl)c1 | %max | % | 120 |
| CC(C)c1onc(CCc2ccccc2)c1COc1ccc(/C=C/c2cccc(C(=O)O)c2)c(Cl)c1 | %max | % | 110 |
| CC(C)c1onc(COc2c(F)cccc2Cl)c1COc1ccc(/C=C/c2cccc(C(=O)O)c2)c(Cl)c1 | %max | % | 121 |
| Cc1cccc(C)c1OCc1noc(C(C)C)c1COc1ccc(/C=C/c2cccc(C(=O)O)c2)c(Cl)c1 | %max | % | 118 |
| CC(C)c1onc(COc2ccc(Cl)cc2)c1COc1ccc(/C=C/c2cccc(C(=O)O)c2)c(Cl)c1 | %max | % | 53 |
| CCC(CC)c1onc(-c2c(Cl)cccc2Cl)c1COc1ccc(/C=C/c2cccc(C(=O)O)c2)c(Cl)c1 | %max | % | 71 |
| CC(C)c1onc(CNc2c(Cl)cccc2Cl)c1COc1ccc(/C=C/c2cccc(C(=O)O)c2)c(Cl)c1 | %max | % | 70 |

(I) CC(C)c1onc(COc2c(F)cc(F)cc2F)c1COc1ccc(/C=C/c2cccc(C(=O)O)c2)c(Cl)c1
(II) Cc1cc(Cl)cc(C)c1OCc1noc(C(C)C)c1COc1ccc(/C=C/c2cccc(C(=O)O)c2)c(Cl)c1
Problem: Lower %max: I or II ? Pick one; state its label.
Result: II

(I) CC(C)c1onc(CSc2c(Cl)cccc2Cl)c1COc1ccc(/C=C/c2cccc(C(=O)O)c2)c(Cl)c1
(II) CC(C)c1onc(COc2ccc(Cl)cc2Cl)c1COc1ccc(/C=C/c2cccc(C(=O)O)c2)c(Cl)c1
Problem: From the recorded data, which exceeds the other in %max: I or II ? Kindly state the label of the option you pick.
Result: I

(1) CC(C)c1onc(CNc2c(Cl)cncc2Cl)c1COc1ccc(/C=C/c2cccc(C(=O)O)c2)c(Cl)c1
(2) CC(C)c1onc(C[S+]([O-])c2c(Cl)cccc2Cl)c1COc1ccc(/C=C/c2cccc(C(=O)O)c2)c(Cl)c1 (configuration not stated)
Problem: Kindly identify the item with the lower %max figure among these two: 1 and 2 The response must carry the label of the picked entry.
Result: 1
